Source of measurements: patent US20250171434A1

# Test system: IL-2-FL/Gaussia Luciferase
# ASSAY_COMMENT: Dox Inducible IL2-FL-Gluc Assay
# Format: cell-based
# REPORTED_CONDITIONS: ratio of IC50s IL2/PD1; Table 1
# Source text: Flp-In 293 T-REx™ cells were transfected with pcDNA™5/FRT/TO plasmid inserted with cDNA encoding Gaussia Luciferase fused to the 3′ end of cDNA encoding full length IL-2 (amino acids 1-153). Transfected cells were selected for resistance to the selectable markers Hygromycin and Blasticidin to create a stable cell line that contained the IL-2-FL/Gaussia Luciferase cDNA insert whose expression was regulated under the T-REx™ system. […]
Everything with 24 hr Dox Inducible IL2FLGluc 293FRT/TO: IL2/PD1 lower than 100 is class 0; everything else, including exactly 100, is class 1.

Example entries and their recorded answers appear below.
                                   molecule                      target  assigned_label
0  CN[C@H]1CC[C@@H](/C=C/c2csc(NC(=O)c3cccn3Cc3ccncc3)n2)CC1 [Compound B11]  IL-2-FL/Gaussia Luciferase         class 0
1  O=C(Nc1nc(/C=C/c2ncn(C3CC3)c2Cl)cs1)c1cc(C(F)F)cn1Cc1ccnc(F)c1 [Compound A29]  IL-2-FL/Gaussia Luciferase         class 1
2  N#Cc1c(/C=C/c2csc(NC(=O)c3cc(OC(F)F)cn3Cc3ccnc(F)c3)n2)ncn1C1CC1 [Compound A27]  IL-2-FL/Gaussia Luciferase         class 1
3  COc1cc(C(=O)Nc2nc(/C=C/c3ncn(C(C)C)c3Cl)cs2)n(Cc2ccnc(F)c2)c1 [Compound A2]  IL-2-FL/Gaussia Luciferase         class 1
4  O=C(Nc1nc(/C=C/c2ncn(C3CC3)c2Cl)cs1)c1cc(O)cn1Cc1ccnc(F)c1 [Compound A18]  IL-2-FL/Gaussia Luciferase         class 0
5  CN[C@H]1CC[C@H](/C=C/c2csc(NC(=O)c3cccn3Cc3ccncc3)n2)CC1 [Compound B12]  IL-2-FL/Gaussia Luciferase         class 0
6  O=C(Nc1nc(/C=C/c2ncn(C3CC3)c2Cl)cs1)c1cc(C(F)(F)F)cn1Cc1ccnc(F)c1 [Compound A30]  IL-2-FL/Gaussia Luciferase         class 1
7  O=C(Nc1nc(/C=C/c2ncoc2C(F)(F)F)cs1)c1cc(Cl)cn1Cc1ccnc(F)c1 [Compound A8]  IL-2-FL/Gaussia Luciferase         class 0

Decide: 24 hr Dox Inducible IL2FLGluc 293FRT/TO: IL2/PD1 of CC(C)n1cnc(/C=C/c2csc(NC(=O)c3cc(Cl)cn3Cc3ccnc(F)c3)n2)c1Cl [Compound A1] >= 100?
class 0

Decide: 24 hr Dox Inducible IL2FLGluc 293FRT/TO: IL2/PD1 of COc1cc(C(=O)Nc2nc(/C=C/c3ncn(C(C)C)c3Cl)c(CO)s2)n(Cc2ccnc(F)c2F)c1 [Compound A21] >= 100?
class 1

Decide: 24 hr Dox Inducible IL2FLGluc 293FRT/TO: IL2/PD1 of COc1cc(C(=O)Nc2nc(/C=C/c3ncn(C4CC4)c3Cl)cs2)n(Cc2ccnc(F)c2F)c1 [Compound A20] >= 100?
class 1

Decide: 24 hr Dox Inducible IL2FLGluc 293FRT/TO: IL2/PD1 of [2H]C([2H])(c1ccnc(F)c1)n1cc(Cl)cc1C(=O)Nc1nc(/C=C/c2ncn(C3CC3)c2Cl)cs1 [Compound A11] >= 100?
class 1

Decide: 24 hr Dox Inducible IL2FLGluc 293FRT/TO: IL2/PD1 of N#Cc1c(/C=C/c2csc(NC(=O)c3cc(Cl)cn3Cc3ccnc(F)c3)n2)ncn1C1CC1 [Compound A28] >= 100?
class 0
